- TESTED_SYSTEM: human β3 adrenergic receptor (Homo sapiens, UniProt P13945)
- Construct: expressed in transfected cells; host or cells: DXB-11 Chinese hamster ovary (CHO) cell line, stably transfected, phd expression vector
- Sequence (P13945 whole entry): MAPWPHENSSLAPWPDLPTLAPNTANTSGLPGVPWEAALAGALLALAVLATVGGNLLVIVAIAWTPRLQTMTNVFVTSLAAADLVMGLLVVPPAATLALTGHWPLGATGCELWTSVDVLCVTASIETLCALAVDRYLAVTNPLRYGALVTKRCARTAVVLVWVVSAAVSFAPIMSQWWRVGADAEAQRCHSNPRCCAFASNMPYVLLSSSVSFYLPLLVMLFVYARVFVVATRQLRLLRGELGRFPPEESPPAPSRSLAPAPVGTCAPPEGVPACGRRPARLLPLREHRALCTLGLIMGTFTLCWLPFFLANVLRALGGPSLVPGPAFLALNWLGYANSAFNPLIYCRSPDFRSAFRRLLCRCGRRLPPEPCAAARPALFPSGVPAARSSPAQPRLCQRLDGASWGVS
- TEST_DETAILS: whole cell receptor coupled c-AMP assay (Emax relative to isoproterenol)
- Type: cell-based
- COND: % intrinsic activity relative to isoproterenol maximal response; transfected CHO cells
MEASURED_ENDPOINT: Emax (%)

# Emax (compound: CC(C)(Cc1c[nH]c2c(Oc3ccc(-c4nn[nH]n4)cn3)cccc12)NC[C@H](O)COc1cccc2c1C1(CCCC1)C(=O)N2 ) is 78.1

# Emax (compound: CC(C)(Cc1c[nH]c2cc(CCc3nnn[nH]3)ccc12)NC[C@H](O)COc1cccc2c1C1(CCCC1)C(=O)N2 ) is 72.7

# Emax (compound: CC(C)(Cc1c[nH]c2c(Oc3ncccc3-c3nn[nH]n3)cccc12)NC[C@H](O)COc1cccc2c1C1(CCCC1)C(=O)N2 ) is 80.1

# Emax (compound: CC(C)(Cc1c[nH]c2c(OCC3=NCCS3)cccc12)NC[C@H](O)COc1cccc2c1C1(CCCC1)C(=O)N2 ) is 84.9

# Emax (compound: CC(C)(Cc1c[nH]c2c(CCC(=O)O)cccc12)NC[C@H](O)COc1cccc2c1C1(CCCC1)C(=O)N2 ) is 77.2

# Emax (compound: CC(C)(Cc1c[nH]c2c(-c3cccc(C(=O)O)c3)cccc12)NC[C@H](O)COc1cccc2c1C1(CCCC1)C(=O)N2 ) is 93.5

# Emax (compound: CC(C)(Cc1c[nH]c2c(C(=O)O)cccc12)NC[C@H](O)COc1cccc2c1C1(CCCC1)C(=O)N2 ) is 59.5

# Emax (compound: CC(C)(Cc1c[nH]c2c(CCc3cnccn3)cccc12)NC[C@H](O)COc1cccc2c1C1(CCCC1)C(=O)N2 ) is 79.3

# Emax (compound: CC(C)(Cc1c[nH]c2cc(C(=O)O)ccc12)NC[C@H](O)COc1cccc2c1C1(CCCC1)C(=O)N2 ) is 56.2

# Emax (compound: CC(C)(Cc1c[nH]c2c(CCc3nnn[nH]3)cccc12)NC[C@H](O)COc1cccc2c1C1(CCCC1)C(=O)N2 ) is 77.4

# Emax (compound: CC(C)(Cc1c[nH]c2c(Oc3ccc(C(N)=O)cn3)cccc12)NC[C@H](O)COc1cccc2c1C1(CCCC1)C(=O)N2 ) is 80.1

Attribution: patent US7087635B2
